Values were extracted from patent US8461329B2.

Target: CRTH2 (KB8 cells) (Homo sapiens, UniProt Q9Y5Y4)
Construct: host or cells: KB8 cells (human CRTH2 expression cell)
Sequence (Q9Y5Y4 whole entry): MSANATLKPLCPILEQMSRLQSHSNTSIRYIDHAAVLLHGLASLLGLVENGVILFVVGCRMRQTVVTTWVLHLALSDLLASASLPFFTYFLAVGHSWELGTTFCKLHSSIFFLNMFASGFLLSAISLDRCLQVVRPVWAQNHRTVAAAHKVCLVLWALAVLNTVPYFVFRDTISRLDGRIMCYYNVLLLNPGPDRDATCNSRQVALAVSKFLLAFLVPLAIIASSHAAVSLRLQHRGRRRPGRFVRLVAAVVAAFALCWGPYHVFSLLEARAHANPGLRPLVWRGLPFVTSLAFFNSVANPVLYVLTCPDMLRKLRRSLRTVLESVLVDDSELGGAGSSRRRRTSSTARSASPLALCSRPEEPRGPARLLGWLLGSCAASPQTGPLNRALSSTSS
Assay: CRTH2 antagonist test (PGD2-induced intracellular calcium ion concentration increase in KB8 cells)
Assay type: cell-based
Details: PGD2 final concentration 100 nM, Fluo-4-AM fluorescence, read-out: antagonist activity (IC50 value, inhibition of calcium ion concentration increase)
Assign IC50 to each entry below.

Name the reported IC50 value associated with the compound O=C(O)Cc1cnc(Cc2ccc(C(=O)NCCc3cc4cc(Cl)ccc4[nH]3)cc2)c2ccccc12
< 50 nM

Query (compound): O=C(O)Cc1cnc(Cc2ccc(C(=O)NCCc3cc(F)cc(Cl)c3)cc2)c2ccccc12 ; field requested: IC50
50 to 500 nM

So what's the measured IC50 for this one? O=C(O)Cc1cnc(Cc2ccc(C(=O)NCCc3ccc(Br)cc3)cc2)c2ccccc12
< 50 nM

Data request, read-out IC50, for O=C(O)Cc1cnc(C(=O)c2ccc(NC(=O)c3cnc4ccccc4c3)cc2)c2ccccc12
< 50 nM

Which measured IC50 value corresponds to O=C(O)Cc1cnc(Cc2ccc(OCCc3ccc(Cl)cc3)cc2)c2ccccc12 ?
500 to 1000 nM

Item CC(C)(CNC(=O)c1ccc(Cc2ncc(CC(=O)O)c3ccccc23)cc1)c1ccc(Cl)cc1 has what recorded IC50?
50 to 500 nM

Suppose we examine the compound O=C(O)Cc1cnc(C(=O)c2ccc(OCCCc3ccc(Cl)cc3)cc2)c2ccccc12 ; what IC50 value has been reported?
50 to 500 nM

For O=C(O)Cc1cnc(C(=O)c2ccc(C(=O)NCCc3cccc(Cl)c3)cc2)c2ccccc12 , what is its reported IC50?
< 50 nM
